Recorded GI50, one value per entry.
- Test system: U373 MG
- protocol.summary: Growth inhibition of human U373 cells after 72 hrs by MTT assay
- Assay type: functional, U-373MG ATCC
Answer in µM, number only, no unit symbol.

compound	target.or.test.system	GI50 / µM
CC(C)=CCC/C(C)=C/C(=O)NC(=N)N	U373 MG	46
CC(C)=CCC/C(C)=C/C(=O)NC(=N)NC(=O)/C=C(\C)CCC=C(C)C	U373 MG	38.9
C=C1CCCC(C)(C)[C@@H]1CC/C(C)=C/C(=O)NC(=N)NC(=O)C=C(C)C	U373 MG	28.8
CC(C)=CCC/C(C)=C/CC/C(C)=C/C(=O)NC(=N)NC(=O)/C=C(\C)CC/C=C(\C)CCC=C(C)C	U373 MG	9.2
COc1cc([C@@H]2c3cc4c(cc3[C@@H](O[C@@H]3O[C@@H]5CO[C@@H](C)O[C@H]5[C@H](O)[C@H]3O)[C@H]3COC(=O)[C@H]23)OCO4)cc(OC)c1O [ETOPOSIDE]	U373 MG	24.9
CC(C)=CCC/C(C)=C/CC/C(C)=C/C(=O)NC(=N)NC(=O)/C=C(\C)CCC=C(C)C	U373 MG	35
CC(C)=CCC/C(C)=C/CC/C(C)=C/C(=O)NC(=N)N	U373 MG	21
CC(C)=CCC/C(C)=C/C(=O)NC(=N)NC(=O)C=C(C)C	U373 MG	36.2
CC(C)=CC(=O)NC(=N)NC(=O)C=C(C)C	U373 MG	45.6

Read the next record carefully.
Item CC(C)=CCC/C(C)=C/CC/C(C)=C/C(=O)NC(=N)NC(=O)C=C(C)C with U373 MG - GI50?
15.7
